# credit: the supplement of paper PMC7877785

Test: self-splicing fitness, log relative to wild type (ln ratio); higher = more splicing; Tetrahymena group I intron in knt gene, E. coli kanamycin selection, DiMSum; sequences stand for … in CUCUCU…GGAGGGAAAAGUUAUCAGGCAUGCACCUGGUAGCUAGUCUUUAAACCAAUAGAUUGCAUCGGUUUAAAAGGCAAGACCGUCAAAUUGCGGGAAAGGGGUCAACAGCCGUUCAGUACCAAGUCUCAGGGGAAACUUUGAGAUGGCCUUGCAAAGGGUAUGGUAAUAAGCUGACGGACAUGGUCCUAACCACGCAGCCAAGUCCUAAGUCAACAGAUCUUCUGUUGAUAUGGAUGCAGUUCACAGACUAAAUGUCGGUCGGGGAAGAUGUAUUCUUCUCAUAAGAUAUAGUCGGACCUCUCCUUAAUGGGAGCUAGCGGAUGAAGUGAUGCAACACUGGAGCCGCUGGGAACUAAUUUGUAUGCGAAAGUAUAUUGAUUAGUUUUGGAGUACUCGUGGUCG;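 also: selection with 25 µg/mL kanamycin versus none on LB agar overnight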
Settings: 30 °C
Classification field: 1 = self-splicing fitness (ln) at or over -2; -1 = self-splicing fitness (ln) under -2.

Kindly determine if self-splicing fitness (ln) recorded for GCCCAGCAAUAUUACGGCGG is above or exactly -2.
-1

State whether the measured self-splicing fitness (ln) reaches -2, counting equality as reaching it, for GUGCAGCAAUAUUACGGUCA
1

Check if self-splicing fitness (ln) >= -2 (inclusive). Item: CAAGAGCAAUAUUACGCUGU
-1

Is the recorded value of self-splicing fitness (ln) equal to or greater than -2 for this sequence? CUUAAGCAAUAUUACGGGAG
-1

State whether the measured self-splicing fitness (ln) reaches -2, counting equality as reaching it, for AUUAAGCAAUAUUACGGUUA
1

Form field: self-splicing fitness (ln) at least -2? Entry: AGCAAGCAAUAUUACGGAUG
-1

Assess whether reported self-splicing fitness (ln) for GAUCAGCAAUAUUACGGUCA sits at -2 or higher.
1

API: above_or_equal(metric=self-splicing fitness (ln), cutoff=-2) for item UCCUAGCAAUAUUACGGUGA
1

Could you verify whether the entry GUAUAGCAAUAUUACGUUAG shows self-splicing fitness (ln) of no less than -2?
-1

Evaluate UGGCAGCAAUAUUACGGACU : self-splicing fitness (ln) at minimum -2?
1

# check: self-splicing fitness (ln) of UUAGAGCAAUAUUACGGAUA is greater than or equal to -2
-1

Could you tell me if the measured self-splicing fitness (ln) of AAUAAGCAAUAUUACGGGGA reaches -2 or more?
-1

Reported self-splicing fitness (ln) reaches at least -2 for CAGGAGCAAUAUUACGAGUG ?
-1

Can AAGAAGCAAUAUUACGGAGA be said to have self-splicing fitness (ln) at or above -2?
-1

Could you please find out whether UGGAAGCAAUAUUACGCCAA has self-splicing fitness (ln) that meets -2 or exceeds it?
1

Decide: self-splicing fitness (ln) of CACAAGCAAUAUUACGGAAC >= -2?
-1

Test whether the sequence UGGGAGCAAUAUUACGGGGG records self-splicing fitness (ln) of -2 or higher.
-1

Is self-splicing fitness (ln) at least -2? Consider ACCAAGCAAUAUUACGAUGC
-1

Determine whether measured self-splicing fitness (ln) meets or exceeds -2 for CGAAAGCAAUAUUACGGCGC
1

Check this sequence for self-splicing fitness (ln) at or above -2: AGCUAGCAAUAUUACGGAGG
-1

Has GCUCAGCAAUAUUACGCUUC a recorded self-splicing fitness (ln) greater than or equal to -2?
1

Hi team, for UGUAAGCAAUAUUACGUGAG , is the recorded self-splicing fitness (ln) at or above -2?
1

Reported self-splicing fitness (ln) at or above -2? AACCAGCAAUAUUACGCUCC
1

Identify whether the reported self-splicing fitness (ln) of the following sequence is -2 or greater: UAGGAGCAAUAUUACGCACA
1

Evaluate ACCGAGCAAUAUUACGAAAA : self-splicing fitness (ln) at minimum -2?
-1

Decide: self-splicing fitness (ln) of AUGUAGCAAUAUUACGAUAC >= -2?
-1
